- Target or test system: human 11b-hsd-1 (Homo sapiens, UniProt P28845)
- Sequence (P28845 whole entry): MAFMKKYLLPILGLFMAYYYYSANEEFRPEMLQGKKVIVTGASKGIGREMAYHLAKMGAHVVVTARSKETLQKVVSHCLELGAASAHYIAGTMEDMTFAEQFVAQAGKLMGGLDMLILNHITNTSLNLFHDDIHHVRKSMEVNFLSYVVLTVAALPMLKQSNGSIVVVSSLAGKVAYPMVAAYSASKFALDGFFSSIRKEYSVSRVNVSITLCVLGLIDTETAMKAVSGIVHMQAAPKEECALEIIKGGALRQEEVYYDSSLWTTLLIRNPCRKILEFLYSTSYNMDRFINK
- Assay overview: Inhibition constant Ki of human 11b-hsd-1 (3H-cortisone to 3H-cortisol conversion, HPLC)
- Format: biochemical
- Particulars: compound at 0.1 μM
Endpoint label: inhibition at 0.1 µM (%)

Solved entries:
molecule="CN(C)CCN1C[C@H](O)C[C@@H]1C(=O)NC1C2CC3CC(C2)CC1C3 (stereo partly shown) [Example 43]" endpoint_label="inhibition at 0.1 µM" result_units=% test_result=31.9
molecule="CC(C)CN1CCOC[C@@H]1C(=O)NCc1c(F)cccc1F [Example 32]" endpoint_label="inhibition at 0.1 µM" result_units=% test_result=67
molecule="O=C(NC1C2CC3CC(C2)CC1C3)[C@H]1C[C@@H](O)CN1Cc1ccc(F)cc1 (stereo partly shown) [Example 27]" endpoint_label="inhibition at 0.1 µM" result_units=% test_result=100
molecule="C[C@@H](O)CN1CCC[C@@H]1C(=O)NC1C2CC3CC(C2)CC1C3 (stereo partly shown) [Example 118]" endpoint_label="inhibition at 0.1 µM" result_units=% test_result=100

(a) CC(C)(C)OC(=O)N1CCN(CC2CCCC2)[C@@H](C(=O)NC23CC4CC(CC(C4)C2)C3)C1 [Example 161]
(b) CC(C)CN1C[C@H](O)C[C@@H]1C(=O)NC1CCCCC1 [Example 29]
Inquiry: Could you tell me which of a and b has the lower inhibition at 0.1 µM reading? Reply briefly: the label of your chosen item.
Reply text: a

---

- Target or test system: human 11b-hsd-1 (Homo sapiens)
- Assay overview: Inhibition constant Ki of human 11b-hsd-1 (3H-cortisone to 3H-cortisol conversion, HPLC)
- Type: biochemical
- Particulars: apparent Ki; read-out: Ki app
pKi: −log10 of the molar value.
Endpoint label: pKi

Solved entries:
compound=CCCN1CCC[C@@H]1C(=O)N[C@@H]1CCc2ccccc21 target_or_test_system="human 11b-hsd-1 (Homo sapiens)" endpoint_label=pKi test_result=8.24
compound=O=C(NC12CC3CC(CC(C3)C1)C2)[C@H]1CSCN1Cc1ccc(Cl)cc1 target_or_test_system="human 11b-hsd-1 (Homo sapiens)" endpoint_label=pKi test_result=8.32
compound=N#Cc1cccc(CN2CCC[C@@H]2C(=O)NC23CC4CC(CC(C4)C2)C3)c1 target_or_test_system="human 11b-hsd-1 (Homo sapiens)" endpoint_label=pKi test_result=9.00

(I) O=C(N[C@H]1c2ccccc2C[C@H]1O)[C@H]1CCCN1CC1CCCC1
(II) O=C(NC1C2CC3CC(C2)CC1C3)[C@@H]1C[C@H](Oc2ccccc2F)CN1 (stereo partly drawn)
(III) CCOc1ccccc1O[C@@H]1CN[C@H](C(=O)NC2C3CC4CC(C3)CC2C4)C1 (stereo partly drawn)
Inquiry: I would appreciate it if you could sort these 3 compounds by pKi, starting from the smallest number. Show the ranking through the labels, in the order asked for.
Reply text: I, III, II
(I: 7.65, III: 8.72, II: 9.15)

(a) O=C(NC1C2CC3CC(C2)CC1C3)[C@H]1NCC[C@@H]1Cc1ccc(F)cc1 (stereo partly drawn)
(b) O=C(NC1C2CC3CC(C2)CC1C3)[C@@H]1C[C@H](Oc2cccc(F)c2)CN1 (stereo partly drawn)
Inquiry: Could you tell me which of a and b has the lower pKi reading? Reply briefly: the label of your chosen item.
Reply text: a
(a: 8.17, b: 8.77)

(P) O=C(NC1CCCCC1)[C@@H]1C[C@H](Oc2ccc(Cl)cc2)CN1
(Q) O=C(NCc1c(F)cccc1F)[C@H]1CCCN1Cc1ccc(Cl)cc1
(R) O=C(NC12CC3CC(CC(C3)C1)C2)[C@H]1CCCC[C@H]1NCc1ccc(Cl)cc1 (racemic)
(S) COc1ccccc1CNC(=O)[C@H]1CCCN1CCC(F)(F)F
Inquiry: I would appreciate it if you could sort these 4 compounds by pKi, starting from the smallest number. Show the ranking through the labels, in the order asked for.
Reply text: S, Q, P, R
(S: 7.21, Q: 7.74, P: 8.00, R: 8.23)

(P) CN(C(=O)C1CCCCN1Cc1ccc(Cl)cc1)C1CCCCC1 (stereo not drawn)
(Q) O=C(NC1C2CC3CC(C2)CC1C3)[C@H]1COCCN1CC1CC1 (stereo partly drawn)
(R) COc1ccccc1CNC(=O)[C@H]1CCCN1CC(C)C
Inquiry: I would appreciate it if you could sort these 3 compounds by pKi, starting from the smallest number. Show the ranking through the labels, in the order asked for.
Reply text: P, R, Q

(1) O=C(NCc1ccc(F)cc1F)[C@H]1COCCN1Cc1ccccc1
(2) O=C(NC12CC3CC(CC(C3)C1)C2)[C@@H]1[C@H]2CC[C@H](C2)N1Cc1ccc(Cl)cc1 (racemic)
Inquiry: Could you tell me which of 1 and 2 has the lower pKi reading? Reply briefly: the label of your chosen item.
Reply text: 1

(P) Cc1ncccc1O[C@@H]1CN[C@H](C(=O)NC2C3CC4CC(C3)CC2C4)C1 (stereo partly drawn)
(Q) Cc1ccc(CNC(=O)[C@H]2CCCN2CC(C)C)cc1
(R) CC(C)CN1CCC[C@@H]1C(=O)NC(C)c1ccc(F)cc1 (stereo partly drawn)
(S) N#Cc1ccc(CN2CCOC[C@@H]2C(=O)NCC2CCCCC2)cc1
Inquiry: Place the items in sequence of falling pKi. Show the ranking through the labels, in the order asked for.
Reply text: S, R, Q, P

(I) CC(C)CN1CCOC[C@@H]1C(=O)NCc1ccc(F)cc1F
(II) Cc1ccccc1O[C@@H]1CN[C@H](C(=O)NC2C3CC4CC(C3)CC2C4)C1 (stereo partly drawn)
Inquiry: Between I and II , whose measured pKi reads higher? Reply briefly: the label of your chosen item.
Reply text: II

(A) O=C(NCc1cccc(F)c1)[C@H]1CCCN1CC1CCCC1
(B) O=C(NCc1ccc(F)cc1F)[C@H]1CCCN1Cc1ccc(Cl)cc1
Inquiry: Could you tell me which of A and B has the lower pKi reading? Reply briefly: the label of your chosen item.
Reply text: A

---

- Target or test system: human 11b-hsd-1 (Homo sapiens, UniProt P28845)
- Assay overview: Inhibition constant Ki of human 11b-hsd-1 (3H-cortisone to 3H-cortisol conversion, HPLC)
- Type: biochemical
- Particulars: apparent Ki, human 11b-hsd-1; read-out: Ki app
pKi: −log10 of the molar value.
Endpoint label: pKi

Solved entries:
compound="CC1(C)CC(NC(=O)C2COCCN2Cc2cccc(C#N)c2)CC(C)(C)C1 (stereo not shown) [Example 187]" endpoint_label=pKi test_result=8.52
compound="CN(C(=O)[C@H]1CCCN1Cc1ccc(Cl)cc1)C1CCCCC1 [Example 191]" endpoint_label=pKi test_result=7.55
compound="CCOCCN1CCC[C@@H]1C(=O)NC1CCCCC1 [Example 95]" endpoint_label=pKi test_result=7.41
compound="O=C(NC1C2CC3CC(C2)CC1C3)[C@H]1C[C@@H](O)CN1Cc1ccc(F)cc1 (stereo partly shown) [Example 27]" endpoint_label=pKi test_result=8.96
compound="CC1(C)CC(NC(=O)C2COCCN2CC2CCCCC2)CC(C)(C)C1 (stereo not shown) [Example 188]" endpoint_label=pKi test_result=8.77
compound="CC(C)CN1C[C@H](O)C[C@@H]1C(=O)NC1C2CC3CC(C2)CC1C3 (stereo partly shown) [Example 25]" endpoint_label=pKi test_result=8.77

(1) O=C(NC12CC3CC(CC(C3)C1)C2)C1COCCN1CC1CCOCC1 (stereo not shown) [Example 184]
(2) NC(=O)CN1CCC[C@@H]1C(=O)NC1C2CC3CC(C2)CC1C3 (stereo partly shown) [Example 19]
(3) CC(C)CN1CCC[C@@H]1C(=O)N[C@@H]1CCCc2ccccc21 [Example 51]
Inquiry: Place the items in sequence of falling pKi. Show the ranking through the labels, in the order asked for.
Reply text: 3, 1, 2

---

- Target or test system: human 11b-hsd-1 (Homo sapiens)
- Assay overview: Inhibition constant Ki of human 11b-hsd-1 (3H-cortisone to 3H-cortisol conversion, HPLC)
- Assay type: biochemical
- Particulars: compound at 0.1 μM
Endpoint label: inhibition at 0.1 µM (%)

compound="CN(C)CCN1CCC[C@@H]1C(=O)NC1C2CC3CC(C2)CC1C3 (stereo partly drawn) [Example 107]" endpoint_label="inhibition at 0.1 µM" test_result=100

(I) O=C(NC1CCc2ccccc21)[C@H]1CCCN1CC1CCCC1 (stereo partly drawn) [Example 39]
(II) CN1CCC(CN2C[C@H](O)C[C@@H]2C(=O)NC2C3CC4CC(C3)CC2C4)CC1 (stereo partly drawn) [Example 47]
Inquiry: Between I and II , whose measured inhibition at 0.1 µM reads higher? Reply briefly: the label of your chosen item.
Reply text: I
(I: 100%, II: 38%)

---

- Target or test system: human 11b-hsd-1 (Homo sapiens, UniProt P28845)
- Assay overview: Inhibition constant Ki of human 11b-hsd-1 (3H-cortisone to 3H-cortisol conversion, HPLC)
- Assay type: biochemical
- Particulars: 0.1 μM compound
Endpoint label: inhibition at 0.1 µM (%)

molecule="CCC1CCCCN1C(=O)[C@H]1CSCN1Cc1ccc(Cl)cc1 (some centres unmarked)" endpoint_label="inhibition at 0.1 µM" test_result=100
molecule=O=C(NCc1ccc(Cl)cc1)[C@H]1CCCN1CC1CCCC1 endpoint_label="inhibition at 0.1 µM" test_result=80.3
molecule=N#Cc1ccccc1CN1CCC[C@@H]1C(=O)N[C@@H]1CCc2ccccc21 endpoint_label="inhibition at 0.1 µM" test_result=93.1
molecule=O=C(NCc1ccccc1)[C@H]1CCCN1CC1CCCC1 endpoint_label="inhibition at 0.1 µM" test_result=82.2
molecule=CC(C)CN1CCC[C@@H]1C(=O)NC1Cc2ccccc2C1 endpoint_label="inhibition at 0.1 µM" test_result=100
